- TESTED_ON: NHE3 (Homo sapiens)
- Sequence (P48764 26-834, species assumed): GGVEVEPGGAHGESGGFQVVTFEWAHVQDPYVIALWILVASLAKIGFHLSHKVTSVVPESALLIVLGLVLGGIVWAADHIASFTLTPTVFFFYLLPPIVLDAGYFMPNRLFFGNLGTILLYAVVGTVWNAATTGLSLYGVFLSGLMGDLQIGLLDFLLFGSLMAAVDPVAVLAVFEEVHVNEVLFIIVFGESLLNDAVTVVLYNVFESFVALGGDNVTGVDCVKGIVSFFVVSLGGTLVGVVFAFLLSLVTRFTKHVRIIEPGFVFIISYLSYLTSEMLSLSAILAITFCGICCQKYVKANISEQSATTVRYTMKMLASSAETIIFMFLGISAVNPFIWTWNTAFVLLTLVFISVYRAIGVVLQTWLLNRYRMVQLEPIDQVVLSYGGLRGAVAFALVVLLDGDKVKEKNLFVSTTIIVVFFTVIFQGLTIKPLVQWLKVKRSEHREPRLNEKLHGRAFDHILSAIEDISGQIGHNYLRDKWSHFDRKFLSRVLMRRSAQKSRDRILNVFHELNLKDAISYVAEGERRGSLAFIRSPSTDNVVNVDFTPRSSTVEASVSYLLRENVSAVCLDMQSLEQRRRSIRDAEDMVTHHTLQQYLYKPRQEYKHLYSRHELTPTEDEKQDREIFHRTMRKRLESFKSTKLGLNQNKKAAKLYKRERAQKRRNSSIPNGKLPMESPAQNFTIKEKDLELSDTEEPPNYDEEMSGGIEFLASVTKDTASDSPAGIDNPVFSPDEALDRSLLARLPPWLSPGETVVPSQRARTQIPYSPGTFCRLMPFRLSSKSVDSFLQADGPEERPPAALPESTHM
- METHOD_NOTES: Determination of the NHE-inhibitory effect (recovery of intracellular pH after acidification, BCECF)
- ASSAY_CONDITIONS: BCECF fluorescence, NHE subtype not given

# MOLECULE, TESTED_ON, DISPLAY_UNIT, IC50
records = [
    ("CCN(CC)c1c(Nc2ccccc2[C@@H]2CN(C)Cc3c(Cl)cc(Cl)cc32)c(=O)c1=O", "NHE3 (Homo sapiens)", "nM", 1520),
    ("CN1Cc2c(Cl)cc(Cl)cc2C(c2ccc(Nc3c(N(C)Cc4ccccc4)c(=O)c3=O)cc2)C1 (stereo not shown)", "NHE3 (Homo sapiens)", "nM", 8000),
    ("CCCN(CCC)c1c(Nc2ccc(C3CN(C)Cc4c(Cl)cc(Cl)cc43)cc2)c(=O)c1=O (stereo not shown)", "NHE3 (Homo sapiens)", "nM", 2490),
    ("COCCN(C)c1c(Nc2ccc(C3CN(C)Cc4c(Cl)cc(Cl)cc43)cc2)c(=O)c1=O (stereo not shown)", "NHE3 (Homo sapiens)", "nM", 1700),
]
